Assay: Single dose bioavailability of L-dC in the cynomologus monkey
Format: in vivo, cynomolgus monkey
Conditions: cynomolgus monkey, blood; L-dC 10 mg/kg single oral dose, mean
MEASURED PROPERTY: Tmax

Prompt: Output measured Tmax for this item: Nc1ccn([C@@H]2CC(O)[C@H](CO)O2)c(=O)n1 (stereo partly drawn) [L-dC, 2′-Deoxy-β-L-cytidine]
Response: 2.33 h

###

Assay: Single dose bioavailability of L-dC in the cynomologus monkey
Format: in vivo, cynomolgus monkey
Conditions: cynomolgus monkey, blood; L-dC 10 mg/kg single IV dose, mean, at 15 minutes post-dose
Description: The pharmacokinetics of L-dC following IV and oral administration of L-dC to cynomolgus monkeys was determined.
MEASURED PROPERTY: Cmax (µM)
Respond with the bare value in µM.

Prompt: For the compound Nc1ccn([C@@H]2CC(O)[C@H](CO)O2)c(=O)n1 (stereo partly drawn) [L-dC, 2′-Deoxy-β-L-cytidine] , give its reported Cmax.
Response: 95.7

###

Assay: Single-dose bioavailability of L-dC in the woodchuck
Format: in vivo
Conditions: plasma; L-dC 10 mg/kg single IV dose, mean
MEASURED PROPERTY: Vd

Prompt: Determine from records and report Vd for Nc1ccn([C@@H]2CC(O)[C@H](CO)O2)c(=O)n1 (stereo partly shown)
Response: 1.17 L/kg

###

Assay: Single-dose bioavailability of L-dC in the rhesus monkey
Conditions: rhesus monkey, blood, po, 10 mg/kg
MEASURED PROPERTY: bioavailability

Prompt: Dear colleague, please send me the reported bioavailability for Nc1ccn([C@@H]2CC(O)[C@H](CO)O2)c(=O)n1 (stereo partly shown) when you can.
Response: ~16%

###

Assay: Single-dose bioavailability of L-dC in the rat
Conditions: Sprague-Dawley, plasma, oral, 10 mg/kg
MEASURED PROPERTY: bioavailability (%)
Give the number; % is assumed, so skip it.

Prompt: Look up and report measured bioavailability for this entry: Nc1ccn([C@@H]2CC(O)[C@H](CO)O2)c(=O)n1 (stereo partly shown)
Response: 15.4
